Biological target: T1, mouse IL-22 (mouse, UniProt Q9JJY9 34-179)
T1 construct: also called mIL-22; mIL22
T1 sequence (looked up): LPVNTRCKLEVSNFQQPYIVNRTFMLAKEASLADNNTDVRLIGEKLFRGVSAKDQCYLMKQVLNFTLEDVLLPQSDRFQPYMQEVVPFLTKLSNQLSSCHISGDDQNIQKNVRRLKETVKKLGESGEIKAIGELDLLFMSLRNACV
Assay: SPR (SierraSensors SPR-2), mIL-22 immobilized on chip, antibody injected, heterogeneous ligand model
Consider the following binders; for each one, report its koff.
Supply the numeric figure in s⁻¹, leaving out any unit text.

[ask] Which koff value is on record for CPS-02 (antibody, V domains shown, Mutant of humanized hum10, whole antibody expressed in CHO cells; also called CPS-hit-02; CSP02) VH: QVQLVQSGAEVKKPGASVKVSCKASGYIFRSYWIHWIRQPPGKGLEWIGRIYPGTGRTYYNEKFKGRVTISADKSISTAYLQWSSLKASDTAMYYCARSYDSSVAYWGQGTLVTVSS VL: AIQLTQSPSSLSASVGDRVTITCSASSSVSYMHWYLQKPGQSPQLLIYKTRKLASGVPSRFSGSGSGTDFTFTISSLEAEDAATYYCQQWSSNPYITFGQGTKVEIKR ?
[reply] 0.000545

[ask] Which koff is reported for this binder? CPS-09 (antibody, V domains shown, Mutant of humanized hum10, whole antibody expressed in CHO cells; also called CPS-hit-09; CSP09) VH: QVQLVQSGAEVKKPGASVKVSCKASGYIFRSYWIHWIRQPPGKGLEWIGRIYPGTGRTYYNEKFKGRVTISADKSISTAYLQWSSLKASDTAMYYCARSYDYSVAYWGQGTLVTVSS VL: AIQLTQSPSSLSASVGDRVTITCSASSSVSYMHWYLQKPGQSPQLLIYETRKLASGVPSRFSGSGSGTDFTFTISSLEAEDAATYYCQQWSSNPYITFGQGTKVEIKR
[reply] 0.000768

Where do the numbers come from? From patent US20210230263A1.
